All figures here come from PubChem BioAssay AID296.

# Tested on: MX-1 breast xenograft, nude mice, tumor weight T/C
# protocolNotes: NCI In Vivo Anticancer Drug Screen. Data for tumor model Human Mammary Carcinoma MX-1 Xenograft (intrarenal inoculation) in NU/NU Swiss (nude) mice
# testParameters: endpoint: mean tumor weight change; dose: 0.25 mg/kg/injection; schedule: Q04DX003 (sc); vehicle: saline + alcohol; higher = larger tumour
Results filed as inconclusive are left out. *1 amine or outer side, *2 acyl side, *3 side chain or, on linkers, in order; H or OH if unused. Where a SMILES comes first, the peptide text is derived from it. Bridges are numbered along the chain shown (N, C = ends). Roman numbers before positions name the chains, in order. [ ]: non-standard residue; d: D form. Actinocin(1to9) = Cc1c2oc3c(C)ccc(C(=O)[*:2])c3nc-2c(C(=O)[*:1])c(N)c1=O; NMeV = CN[CH](C(=O)O)C(C)C; Aze = O=C(O)[CH]1CCN1; Sar = CNCC(=O)O
Assign T/C to each entry below.

These recorded examples may help you get a feel for the data.
CCC/C=C/C=C/C(=O)OC1/C(=C/C(=O)OC)CC2CC(C(C)O)OC(=O)CC(O)CC3CC(OC(C)=O)C(C)(C)C(O)(CC4C/C(=C/C(=O)OC)CC(/C=C/C(C)(C)C1(O)O2)O4)O3 (centres undefined); 103 % of control
CCC(=O)N(C)[C@@H](C)C(=O)O[C@H]1CC(=O)N(C)c2cc(cc(OC)c2Cl)C/C(C)=C/C=C[C@@H](OC)[C@@]2(O)C[C@H](OC(=O)N2)[C@@H](C)[C@@H]2O[C@@]12C; 88 % of control

For every record below, what is its T/C?
1. Cc1c2oc3c(C)ccc(C(=O)NC4C(=O)NC(C(C)C)C(=O)N5CCCC5C(=O)N(C)CC(=O)N(C)C(C(C)C)C(=O)OC4C)c3nc-2c(C(=O)NC2C(=O)NC(C(C)C)C(=O)N3CCC3C(=O)N(C)CC(=O)N(C)C(C(C)C)C(=O)OC2C)c(N)c1=O (centres undefined) (I: TV[Aze][Sar][NMeV] / II: TVP[Sar][NMeV]; ester I:1-I:C, II:1-II:C; linker I:N-II:N via Actinocin(1to9); configuration not given here)
2. COC(=O)[C@@]12OC[C@]34[C@H]([C@@H](O)[C@@H]1O)[C@@]1(C)CC(=O)C(O)=C(C)[C@@H]1C[C@H]3OC(=O)[C@H](OC(=O)/C=C(\C)C(C)C)[C@@H]24

**Result**
1. 53 % of control
2. 52 % of control

----------
# Test system: MX-1 breast xenograft, nude mice, tumor weight T/C
# protocolNotes: NCI In Vivo Anticancer Drug Screen. Data for tumor model Human Mammary Carcinoma MX-1 Xenograft (intrarenal inoculation) in NU/NU Swiss (nude) mice
# testParameters: endpoint: mean tumor weight change; dose: 75.0 mg/kg/injection; schedule: Q04DX003 (ip); vehicle: Klucel (hydroxypropylcellulose) (HPC); higher = larger tumour
Inconclusive results are not listed.
Please go through the items and note down their T/C.

Recorded results for 3 molecules are shown here.
O=[N+]([O-])c1ccc([I+]c2ccccc2)cc1; 92 % of control
COc1nc(C(Cl)(Cl)Cl)c(Cl)c(OC)c1Cl; 33 % of control
CCCCCNc1ncnc2c(C)[nH]nc12; 80 % of control

Turning to the following molecule.
T/C reported for this molecule C=C1c2cccc(O)c2C(O)=C2C(=O)[C@]3(O)C(O)=C(C(N)=O)C(=O)[C@@H](N(C)C)[C@@H]3[C@@H](O)[C@H]12 : 89 % of control

----------
# System: MX-1 breast xenograft, nude mice, tumor weight T/C
# protocolNotes: NCI In Vivo Anticancer Drug Screen. Data for tumor model Human Mammary Carcinoma MX-1 Xenograft (intrarenal inoculation) in NU/NU Swiss (nude) mice
# testParameters: endpoint: mean tumor weight change; dose: 8.0 mg/kg/injection; schedule: Q01DX010 (sc); vehicle: saline; higher = larger tumour
Records with an inconclusive call do not appear.
measuredQuantity: T/C

Sample answers from the record:
CCCCNCCCNCCCNC(=O)c1csc(-c2csc(CCNC(=O)C(NC(=O)C(C)C(O)C(C)NC(=O)C(NC(=O)c3nc(C(CC(N)=O)NCC(N)C(N)=O)nc(N)c3C)C(OC3OC(CO)C(O)C(O)C3OC3OC(CO)C(O)C(OC(N)=O)C3O)c3cnc[nH]3)C(C)O)n2)n1 (stereo unspecified); 104 % of control
COc1cc2c(cc1O)N=C[C@@H]1CCC(O)N1C2=O (mixture of isomers); 187 % of control
COc1cc([C@@H]2c3cc4c(cc3[C@@H](OC3OC5CO[C@@H](c6cccs6)OC5C(O)C3O)[C@H]3COC(=O)[C@H]23)OCO4)cc(OC)c1O (stereo partly specified); 67 % of control
COc1cc([C@@H]2c3cc4c(cc3[C@@H](OC3OC5COC(C)OC5C(O)C3O)[C@H]3COC(=O)[C@H]23)OCO4)cc(OC)c1O (stereo partly specified); 51 % of control
O=NN(CCCl)C(=O)NCCCl; 56 % of control

Next:
# T/C (compound: Cc1c(N)nc(C(CC(N)=O)NCC(N)C(N)=O)nc1C(=O)NC(C(=O)NC(C)C(O)C(C)C(=O)NC(C(=O)NCCc1nc(-c2nc(C(=O)NCCCNC(C)c3ccccc3)cs2)cs1)C(C)O)C(OC1OC(CO)C(O)C(O)C1OC1OC(CO)C(O)C(OC(N)=O)C1O)c1cnc[nH]1 (stereo unspecified) ) is 92 % of control

----------
# System: MX-1 breast xenograft, nude mice, tumor weight T/C
# protocolNotes: NCI In Vivo Anticancer Drug Screen. Data for tumor model Human Mammary Carcinoma MX-1 Xenograft (intrarenal inoculation) in NU/NU Swiss (nude) mice
# testParameters: endpoint: mean tumor weight change; dose: 800.0 mg/kg/injection; schedule: Q04DX003 (sc); vehicle: distilled water + Tween-80; higher = larger tumour
Inconclusive results are not listed.
measuredQuantity: T/C

Sample answers from the record:
CNC(=O)OCc1c(COC(=O)NC)c(-c2ccccc2)n(C)c1-c1ccccc1; 74 % of control
Nc1nc(/C=C(/O)c2ccccc2)c2ncn(C3OC(CO)C(O)C3O)c2n1 (centres undefined); 92 % of control
CC(=O)Oc1c[nH]c(=O)[nH]c1=O; 95 % of control

Turning now to a further compound:
The compound O=C(NO)c1cc(O)c(O)c(O)c1 showed T/C equal to 122 % of control

----------
Consider the following compounds; for each one, report its T/C.
# Test system: MX-1 breast xenograft, nude mice, tumor weight T/C
# protocolNotes: NCI In Vivo Anticancer Drug Screen. Data for tumor model Human Mammary Carcinoma MX-1 Xenograft (intrarenal inoculation) in NU/NU Swiss (nude) mice
# testParameters: endpoint: mean tumor weight change; dose: 600.0 mg/kg/injection; schedule: Q04DX003 (sc); vehicle: saline with Tween-80; higher = larger tumour
# Experimental: The antitumor activity of compounds was measured in mice bearing transplantable tumors. Survival or tumor size were measured and the results are expressed as the measurement made in the treated group (T) divided by the measurement made in the vehicle treated control group (C). The tumor model used in this assay is Human Mammary Carcinoma MX-1 Xenograft (intrarenal inoculation) in NU/NU Swiss (nude) mice
Results filed as inconclusive are left out.

CNC(=O)n1c(N)nc(-c2ccccc2)c1-c1ccccc1; 62 % of control
O=C(Nc1cccc2c(OC(=O)C(Cl)Cl)c(N=Nc3ccc(S(=O)(=O)Nc4nccs4)cc3)cc(N=Nc3ccc(S(=O)(=O)Nc4nccs4)cc3)c12)C(Cl)Cl (tested in a mixture with another compound); 103 % of control

Hi! Can you tell me T/C for each of these compounds?
1. CNc1cccnc1/C=N/NC(N)=S
2. CC(=O)Nc1ccc(S(=O)(=O)CO)cc1
3. CCCCCCCCCCCCCCCCCCCCCC(=O)Nc1ccn(C2OC(CO)C(O)C2O)c(=O)n1 (centres undefined)
4. CCSC(=O)N1c2ccc(OC)cc2C=CC1C#N (centres undefined)
5. COc1cc2c3c(cccc3c1)C(=O)N(CCN(C)C)C2=O
6. C/C(=N\NC(N)=O)c1cccc(/C(C)=N/NC(N)=O)n1
7. COc1cc(Cl)ccc1C

**Result**
1: 61 % of control; 2: 85 % of control; 3: 87 % of control; 4: 119 % of control; 5: 103 % of control; 6: 98 % of control; 7: 88 % of control

State recorded T/C for all listed compounds.
1. O=Cc1c(O)c2ccccc2[nH]c1=O
2. CN=C(N)N/N=C(\C)c1ccc2c(c1)Cc1ccccc1-2
3. CC/C(=C(/CC)c1ccc(O)cc1)c1ccc(O)cc1
4. COc1ccc(C(=O)c2no[n+]([O-])c2C(=O)c2ccc(OC)cc2)cc1
5. O=C1CN(Cc2ccc3c(c2)OCO3)NO1
6. Nc1ccc2c(c1)CN1C(=O)c3ccccc3C1=N2

**Result**
1: 86 % of control; 2: 105 % of control; 3: 55 % of control; 4: 91 % of control; 5: 39 % of control; 6: 168 % of control

Can you give me T/C for all of these, one by one?
1. CC(Oc1ccccc1-c1ccccc1)C(=O)N(C)C (centres undefined)
2. CCOC(=O)C1(c2ccccc2)C(=O)Oc2ccccc21 (centres undefined)
3. CC(C#N)(C#N)N=Nc1ccc(Cl)cc1Cl
4. CN(C)P(=O)(Oc1ccccc1)N(C)C
5. CCCCCCCC(=O)[O][Hg][CH2]C1COC([CH2][Hg][O]C(=O)CCCCCCC)CO1 (centres undefined)
6. COc1cc(C(C)(C)C)cc(OC)c1C(O)(c1c(OC)cc(C(C)(C)C)cc1OC)c1c(OC)cc(C(C)(C)C)cc1OC
7. C[Si](C)(C)n1nnn(-c2ccccc2)c1=O
8. CCOC(=O)c1cn(C)c2c1C(O)=C(C(=O)OC)CC(=O)N2

**Result**
1: 102 % of control; 2: 103 % of control; 3: 94 % of control; 4: 113 % of control; 5: 70 % of control; 6: 212 % of control; 7: 91 % of control; 8: 85 % of control
